molecular target: UniProtKB P07711; assay: Inhibition of human liver cathepsin L at 25 uM peincubated for 5 mins followed by Z-FR-MCA addition by spectrofluorimetric method relative to control
Sequence (P07711 114-333 limits assumed): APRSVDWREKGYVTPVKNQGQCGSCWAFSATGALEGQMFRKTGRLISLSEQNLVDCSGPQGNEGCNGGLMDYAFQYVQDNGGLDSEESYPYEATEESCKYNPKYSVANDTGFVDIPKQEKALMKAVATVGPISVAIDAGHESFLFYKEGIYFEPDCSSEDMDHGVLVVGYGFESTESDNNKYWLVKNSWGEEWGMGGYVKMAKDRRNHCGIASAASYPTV
The source made the active and inactive calls. The calls are words filed in the database; no cut-off is given here.
Quantity measured: inhibition

Reference set (5 entries):
CCCCCCC[C@H]1O[C@@H]1C(OC(=O)C1CCCCC1)C(=O)NC(C)(C)C (mixture of isomers) | inactive
CCCC(=O)OC(C(=O)NCc1ccccc1)[C@H]1O[C@@H]1c1ccccc1[N+](=O)[O-] (mixture of isomers) | 2.9%
CCCCCCC[C@H]1O[C@@H]1C(OC(=O)CCCCCBr)C(=O)NC1CCCCC1 (mixture of isomers) | 69%
CC(C)(C)NC(=O)C(OC(=O)c1ccccc1)[C@H]1O[C@@H]1c1ccccc1[N+](=O)[O-] (mixture of isomers) | 10.5%
CCCCCCC[C@H]1O[C@@H]1C(OC(=O)CCCCCBr)C(=O)NCCCC (mixture of isomers) | 69%

Batch: inhibition for all items listed.
1. CCCCCCC[C@H]1O[C@@H]1C(OC(=O)c1ccccc1)C(=O)NC(C)(C)C (mixture of isomers)
2. CCCCCCC[C@H]1O[C@@H]1C(OC(=O)[C@@H]1CCCN1C(=O)OC(C)(C)C)C(=O)NC(C)(C)C (single isomer, unassigned)
3. CCCCCCC[C@H]1O[C@@H]1C(OC(=O)C1CCCCC1)C(=O)NCCCC (mixture of isomers)
4. CCCCCCC[C@H]1O[C@@H]1C(OC(=O)c1ccc(I)cc1)C(=O)NCCCC (mixture of isomers)
5. CCCCCCC[C@H]1O[C@@H]1C(OC(=O)CC(C)C)C(=O)NCc1ccccc1 (mixture of isomers)
6. CCCCCCC[C@H]1O[C@@H]1C(OC(=O)c1ccc(I)cc1)C(=O)NC1CCCCC1 (mixture of isomers)

["86.4%", "52.6%", "70%", "74%", "43%", "98.5%"]

Batch: inhibition for all items listed.
1. CCCCCCC[C@H]1O[C@@H]1C(OC(=O)CCCCCBr)C(=O)NC(C)(C)C (mixture of isomers)
2. CCCCCCC[C@H]1O[C@@H]1C(OC(=O)c1ccccc1)C(=O)NCC(=O)OC (mixture of isomers)

inactive
inactive

* * *

Would you mind telling me the reported inhibition of each entry?
target: Cathepsin L2 (Homo sapiens); assay: Inhibition of cathepsin V (unknown origin) at 25 uM peincubated for 5 mins followed by Z-FR-MCA addition by spectrofluorimetric method relative to control
One number for each entry, in %.

CCCCCCC[C@H]1O[C@@H]1C(OC(=O)[C@H]1CCCN1C(=O)OC(C)(C)C)C(=O)NC(C)(C)C (mixture of isomers) | 0

Batch: inhibition for all items listed.
1. CC(C)(C)NC(=O)C(OC(=O)c1ccccc1)[C@H]1O[C@@H]1c1ccccc1[N+](=O)[O-] (mixture of isomers)
2. CCCC(=O)OC(C(=O)NCc1ccccc1)[C@H]1O[C@@H]1c1ccccc1[N+](=O)[O-] (mixture of isomers)
3. CCCCCCC[C@H]1O[C@@H]1C(OC(=O)c1ccccc1)C(=O)NC(C)(C)C (mixture of isomers)
4. CCCCCCC[C@H]1O[C@@H]1C(OC(=O)[C@@H]1CCCN1C(=O)OC(C)(C)C)C(=O)NC(C)(C)C (single isomer, unassigned)
5. CCCCCCC[C@H]1O[C@@H]1C(OC(=O)c1ccc(I)cc1)C(=O)NC1CCCCC1 (mixture of isomers)

1. 21.3
2. 3.9
3. 43.5
4. 0
5. 30.8

* * *

Biological target: Cathepsin K (Homo sapiens, UniProt P43235)
Sequence (P43235 whole entry): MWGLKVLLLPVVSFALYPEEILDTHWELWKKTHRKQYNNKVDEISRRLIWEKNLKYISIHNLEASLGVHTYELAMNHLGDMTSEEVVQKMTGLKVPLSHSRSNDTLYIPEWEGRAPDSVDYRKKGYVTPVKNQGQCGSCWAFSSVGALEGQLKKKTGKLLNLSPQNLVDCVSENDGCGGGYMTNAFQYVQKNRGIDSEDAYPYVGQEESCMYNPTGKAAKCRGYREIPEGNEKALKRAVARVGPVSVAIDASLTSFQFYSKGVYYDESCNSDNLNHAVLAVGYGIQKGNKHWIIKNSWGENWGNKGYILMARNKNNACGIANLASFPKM
Experiment: Inhibition of cathepsin K (unknown origin) peincubated for 5 mins followed by Z-FR-MCA addition by spectrofluorimetric method
Quantity measured: pIC50
One number for each entry, as −log10 of the molar value.

Give the measured pIC50 of CCCCCCC[C@H]1O[C@@H]1C(OC(=O)c1ccccc1)C(=O)NC(C)(C)C (mixture of isomers) .
4.90

* * *

biological target: Procathepsin L (Homo sapiens, UniProt P07711); experiment: Reversible inhibition of human liver cathepsin L peincubated for 30 mins followed by addition of 9 uM of substrate Z-FR-MCA measured after 10 mins by spectrofluorimetric method
Sequence (P07711 whole entry): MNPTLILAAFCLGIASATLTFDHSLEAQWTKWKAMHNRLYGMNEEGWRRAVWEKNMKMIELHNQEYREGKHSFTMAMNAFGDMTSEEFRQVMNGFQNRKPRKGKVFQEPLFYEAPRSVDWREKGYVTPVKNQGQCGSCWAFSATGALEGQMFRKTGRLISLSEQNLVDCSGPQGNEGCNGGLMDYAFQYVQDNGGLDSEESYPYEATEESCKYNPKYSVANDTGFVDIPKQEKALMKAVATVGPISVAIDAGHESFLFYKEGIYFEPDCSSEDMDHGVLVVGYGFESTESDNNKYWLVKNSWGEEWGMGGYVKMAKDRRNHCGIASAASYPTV
Quantity measured: IC50 (µM)
Numbers only, in µM.

Give the measured IC50 of CCCCCCC[C@H]1O[C@@H]1C(OC(=O)c1ccc(I)cc1)C(=O)NC1CCCCC1 (mixture of isomers) .
6.09

* * *

target: Procathepsin L (Homo sapiens, UniProt P07711); assay: Reversible inhibition of human liver cathepsin L peincubated for 30 mins followed by addition of 4.5 uM of substrate Z-FR-MCA measured after 10 mins by spectrofluorimetric method
Quantity measured: pIC50
Answers are plain numbers, as −log10 of the molar value.

Give the measured pIC50 of CCCCCCC[C@H]1O[C@@H]1C(OC(=O)c1ccc(I)cc1)C(=O)NC1CCCCC1 (mixture of isomers) .
4.95

* * *

molecular target: Procathepsin L (Homo sapiens); assay: Reversible inhibition of human liver cathepsin L peincubated for 30 mins followed by addition of 6 uM of substrate Z-FR-MCA measured after 10 mins by spectrofluorimetric method
Quantity measured: IC50
Quick note: unit goes after the number.

Please tell me: IC50 of CCCCCCC[C@H]1O[C@@H]1C(OC(=O)c1ccc(I)cc1)C(=O)NC1CCCCC1 (mixture of isomers) , system Procathepsin L (Homo sapiens)?
5.26 µM

* * *

target: Procathepsin L (Homo sapiens, UniProt P07711); assay: Reversible inhibition of human liver cathepsin L peincubated for 30 mins followed by addition of 5.5 uM of substrate Z-FR-MCA measured after 10 mins by spectrofluorimetric method
Quantity measured: pIC50
Give bare numbers, as −log10 of the molar value.

Give the measured pIC50 of CCCCCCC[C@H]1O[C@@H]1C(OC(=O)c1ccc(I)cc1)C(=O)NC1CCCCC1 (mixture of isomers) .
5.29

* * *

molecular target: UniProt:P07711; test: Reversible inhibition of human liver cathepsin L peincubated for 30 mins followed by addition of 3.5 uM of substrate Z-FR-MCA measured after 10 mins by spectrofluorimetric method
Quantity measured: IC50 (µM)
Numbers only, in µM.

Give the measured IC50 of CCCCCCC[C@H]1O[C@@H]1C(OC(=O)c1ccc(I)cc1)C(=O)NC1CCCCC1 (mixture of isomers) .
16.9

* * *

Would you mind telling me the reported IC50 of each entry?
target: Procathepsin L (Homo sapiens); assay: Inhibition of human liver cathepsin L peincubated for 5 mins followed by Z-FR-MCA addition by spectrofluorimetric method
Quick note: unit goes after the number.

Reference set (2 entries):
CCCCCCCC1OC1C(OC(=O)c1ccc(I)cc1)C(=O)NC1CCCCC1 (mixture of isomers; form 2) | 2020 nM
CCCCCCCCNC(=O)C(OC(=O)CCCCCBr)[C@H]1O[C@@H]1c1ccccc1[N+](=O)[O-] (mixture of isomers) | 8550 nM

Kindly consider the entry below.
Give the measured IC50 of CCCCCCCC1OC1C(OC(=O)c1ccc(I)cc1)C(=O)NC1CCCCC1 (mixture of isomers; form 1) .
1130 nM

* * *

molecular target: Procathepsin L (Homo sapiens); assay: Reversible inhibition of human liver cathepsin L peincubated for 30 mins followed by addition of 5 uM of substrate Z-FR-MCA measured after 10 mins by spectrofluorimetric method
Quantity measured: IC50
Quick note: unit goes after the number.

Give the measured IC50 of CCCCCCC[C@H]1O[C@@H]1C(OC(=O)c1ccc(I)cc1)C(=O)NC1CCCCC1 (mixture of isomers) .
9.78 µM

* * *

biological target: Procathepsin L (Homo sapiens, UniProt P07711); test: Reversible inhibition of human liver cathepsin L peincubated for 30 mins followed by addition of 8 uM of substrate Z-FR-MCA measured after 10 mins by spectrofluorimetric method
Quantity measured: pIC50
Numbers only, as −log10 of the molar value.

Give the measured pIC50 of CCCCCCC[C@H]1O[C@@H]1C(OC(=O)c1ccc(I)cc1)C(=O)NC1CCCCC1 (mixture of isomers) .
5.24

* * *

target: Procathepsin L (Homo sapiens)
Quantity measured: Ki (nM)
Numbers only, in nM.

Give the measured Ki of CCCCCCC[C@H]1O[C@@H]1C(OC(=O)c1ccc(I)cc1)C(=O)NC1CCCCC1 (mixture of isomers) .
1330

* * *

target: Procathepsin L (Homo sapiens); experiment: Inhibition of human liver cathepsin L at 25 uM peincubated for 5 mins followed by Z-FR-MCA addition by spectrofluorimetric method relative to control
Quantity measured: inhibition

Reference set (2 entries):
CCCCCCC[C@H]1O[C@@H]1C(OC(=O)[C@H]1CCCN1C(=O)OC(C)(C)C)C(=O)NC(C)(C)C (mixture of isomers) | 67.3%
CCCCCCCCNC(=O)C(OC(=O)CCCCCBr)[C@H]1O[C@@H]1c1ccccc1[N+](=O)[O-] (mixture of isomers) | 84%

Kindly consider the entry below.
Give the measured inhibition of CCCCCCC[C@H]1O[C@@H]1C(OC(=O)c1ccc(I)cc1)C(=O)NC(C)(C)C (mixture of isomers) .
65%

Entry source: ChEMBL document CHEMBL4043111
